target: AgBbc1; test: SPOT peptide array binding signal intensity (averaged, normalized) (arbitrary units (background-subtracted, floor 0; scale differs between SH3 domains)); higher = stronger binding of the SH3 domain to the peptide
SPOT peptide array binding signal intensity vs 90: at or above is YES, below is NO.

Solved cases (2 shown):
binder	cat
VPPVPLPFGIPPFPM	NO
EREKALPPIPFTTTL	NO

Does SPOT peptide array binding signal intensity meet or surpass 90 for RNNRPVPPPPPMRTT ?
YES

Does SPOT peptide array binding signal intensity meet or surpass 90 for ITHRLRISIPGITGR ?
YES

Does SPOT peptide array binding signal intensity meet or surpass 90 for KTKQQKPAIPQKKSF ?
NO

Does SPOT peptide array binding signal intensity meet or surpass 90 for IRMPSNPALPKKLLN ?
NO
